Values were extracted from ChEMBL document CHEMBL1143129.

- Target or system: Carbonic anhydrase 13 (Mus musculus) (UniProt Q9D6N1)
- Sequence (Q9D6N1 whole entry, looked up): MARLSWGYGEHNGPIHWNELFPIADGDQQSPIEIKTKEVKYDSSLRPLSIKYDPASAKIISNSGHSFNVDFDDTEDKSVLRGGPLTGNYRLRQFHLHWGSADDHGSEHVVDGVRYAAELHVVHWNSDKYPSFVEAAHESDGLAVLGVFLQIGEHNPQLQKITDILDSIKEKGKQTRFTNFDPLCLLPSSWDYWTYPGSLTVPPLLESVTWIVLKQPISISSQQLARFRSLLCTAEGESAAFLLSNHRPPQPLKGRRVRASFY
- Test details: Inhibition of mouse recombinant full length carbonic hydrase 13 by stopped-flow CO2 hydration assay
Parameter: pKi
In plain terms, pKi is the concentration in mol/L turned into minus its base-10 logarithm.

Request: So what's the measured pKi for this one? CN(C)c1nnc(CS(N)(=O)=O)s1
Result: 7.70
